Values from patent US20110237549A1

System: 265-nucleotide full-length T. maritima lysine riboswitch
Test: primer extension assay (reverse transcriptase pausing at A169)
Format: biochemical, Thermotoga maritima
Reported Endpoint: binding to the riboswitch relative to lysine in primer extension

| Mol Smiles | Result |
| --- | --- |
| NCCSC[C@H](N)C(=O)O | weaker binding |
| NCCOC[C@H](N)C(=O)O | weaker binding |

----------
Recorded pKd by entry
Target: 112-nucleotide F. nucleatum FMN riboswitch
Assay: fluorescent binding assay with the 112-nucleotide F. nucleatum FMN riboswitch
Details: read-out: dissociation constants (mean s.d.); 112-nucleotide riboswitch, 2 mM MgCl2 and 100 mM KCl
The meaning of pKd here: minus log10 of the concentration in molar units.

| Mol Smiles | pKd |
| --- | --- |
| Cc1cc2nc3c(=O)[nH]c(=O)nc-3n(C)c2cc1C | 4.23 |

Check the records and state pKd for Cc1cc2nc3c(=O)[nH]c(=O)nc-3n(C[C@H](O)[C@H](O)[C@H](O)CO)c2cc1C
4.40
